# assayed_system: PAR2 (HT-29 cells, SLIGKV activation) (Homo sapiens, UniProt P55085)
# Construct: host or cells: HT-29 cells
# Sequence (P55085 26-397): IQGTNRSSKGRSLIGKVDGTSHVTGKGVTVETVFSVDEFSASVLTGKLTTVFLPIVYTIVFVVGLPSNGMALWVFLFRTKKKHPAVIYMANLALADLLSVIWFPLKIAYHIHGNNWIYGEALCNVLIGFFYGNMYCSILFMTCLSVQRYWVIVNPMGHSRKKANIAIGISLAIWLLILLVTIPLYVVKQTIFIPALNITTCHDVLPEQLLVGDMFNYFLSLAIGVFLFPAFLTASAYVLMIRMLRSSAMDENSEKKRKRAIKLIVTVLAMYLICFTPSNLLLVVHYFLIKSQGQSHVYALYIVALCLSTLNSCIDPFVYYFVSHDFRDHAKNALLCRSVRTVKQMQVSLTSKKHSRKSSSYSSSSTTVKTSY
# assay_remarks: Ca FLIPR TETRA assay, ANTAGONIST mode, stimulation with 8 μM SLIGKV
# Format: cell-based
# condition_set: HT-29 cells, stimulation with 8 μM SLIGKV
metric: IC50 (nM)
Write it as a number; the unit nM goes unstated.

Value lookup for IC50; key = O=C(c1cn2nc(-c3ccc(F)cc3)cc(C(F)(F)F)c2n1)N1CCCCC1c1ccncc1 (stereo not drawn)
3100

Could you tell me which IC50 is on file for "C[C@H]1CN(C(=O)c2cn3nc(-c4ccc(F)cc4)cc(C(F)(F)F)c3n2)CCN1C(=O)OCC(C)(C)C" ?
22

Request the reported IC50 associated with "COC(=O)[C@@H]1CCN(C(=O)c2cn3nc(-c4ccc(F)cc4)cc(C)c3n2)C[C@@H]1C"
430

Consider the compound "C#CCCC(=O)N1CCN(C(=O)c2cn3nc(-c4ccc(F)cc4)cc(C(C)C)c3n2)C[C@@H]1C" and give its measured IC50.
25

I would be grateful if you could share the reported IC50 for "CC(C)c1cc(-c2ccc(F)cc2)nn2cc(C(=O)N3CCN(C(=O)CCC4CCC4)[C@@H](C)C3)nc12" .
2

Any idea what its IC50 is? The compound is "CCc1cc(-c2ccc(F)cc2)nn2cc(C(=O)N3CCN(C(=O)[C@H](O)CC4CC4)CC3(C)C)nc12"
8

What value of IC50 has been recorded for this entry: "CC(C)c1cc(-c2ccc(F)cc2)nn2cc(C(=O)N3CCN(C(=O)CC4CCOCC4)[C@@H](C)C3)nc12"
16

Tell me the measured IC50 of "CC(C)c1cc(-c2ccc(F)cc2)nn2cc(C(=O)N3CCN(C(=O)C4(NC(=O)OC(C)(C)C)CCCCC4)[C@@H](C)C3)nc12" , please.
74

Form field: reported IC50 of "CC(C)c1cc(-c2ccc(F)cc2)nn2cc(C(=O)N3CCN(C(=O)C4(N)CCC4)[C@@H](C)C3)nc12"
800

Fill in the blank: the reported IC50 of "CC(C)c1cc(Cl)nn2cc(C(=O)N3CCN(C(=O)OC(C)(C)C)CC3(C)C)nc12" is ____.
2800

Quick check: IC50 of "CC1(c2cc(-c3ccc(F)cc3)nn3cc(C(=O)N4CCNC(=O)C4(C)C)nc23)CC1" ?
2

Param item = "C=C(C)c1cc(-c2ccc(F)cc2)nn2cc(C(=O)N3CCN(C(=O)[C@H](O)CC(C)(C)C)[C@@H](C)C3)nc12" ; retrieve measured IC50.
3

Report IC50 for "C[C@H]1CN(C(=O)c2cn3nc(-c4ccc(F)cc4)cc(C(F)(F)F)c3n2)CCN1C(=O)c1cc(-c2ccccc2)n[nH]1" please.
21

GET /values?readout=IC50&item= "CCCC(=O)N1CCN(C(=O)c2cn3nc(-c4ccc(F)cc4)cc(C(C)C)c3n2)C[C@@H]1C"
26

// lookup IC50 for "CC(C)c1cc(C2=CCOCC2)nn2cc(C(=O)N3CCN(C(=O)C4(O)CCC4)CC3(C)C)nc12"
5000

Param item = "CCc1cc(-c2ccc(F)cc2)nn2cc(C(=O)N3CCN(C(=O)[C@H](O)CC(C)C)CC3(C)C)nc12" ; retrieve measured IC50.
2

Query (compound): "C[C@H]1CN(C(=O)c2cn3nc(-c4ccc(F)cc4)cc(C(F)(F)F)c3n2)CCN1C(=O)OC(C)(C)C" ; field requested: IC50
280

For "CC(C)c1cc(-c2ccc(F)cc2)nn2cc(C(=O)N3CCN(C(=O)CCC(F)(F)F)[C@@H](C)C3)nc12" , what is its reported IC50?
11

Which IC50 is listed for "Cc1cc(-c2ccc(F)cc2)nn2cc(C(=O)N3CCN(C(=O)[C@H](O)C(C)(C)C)[C@@H](C)C3)nc12" ?
250

GET /values?readout=IC50&item= "C[C@H]1CN(C(=O)c2cn3nc(-c4ccc(F)cc4)cc(C(F)(F)F)c3n2)CCN1C(=O)OCc1ccccc1"
40

Using the record for "CC(C)(C)C[C@@H](O)C(=O)N1CCN(C(=O)c2cn3nc(-c4ccc(F)cc4)cc(C(F)(F)F)c3n2)CC1" , report its IC50.
140

Please report the recorded IC50 for "CC(C)CCCC(=O)N1CCN(C(=O)c2cn3nc(-c4ccc(F)cc4)cc(C(C)C)c3n2)C[C@@H]1C" .
2

For the compound shown here, "C[C@H]1CN(C(=O)c2cn3nc(-c4ccc(F)cc4)cc(C(F)(F)F)c3n2)CCN1C(=O)c1ncc[nH]1" , give the reported IC50.
680

Fill in: IC50 of "CC(C)c1cc(-c2ccc(F)cc2)nn2cc(C(=O)N3CCN(C(=O)Cc4cccnc4)[C@@H](C)C3)nc12" is ___
35

// query IC50 value for entry "Cc1cc(C)n(CCC(=O)N2CCN(C(=O)c3cn4nc(-c5ccc(F)cc5)cc(C(C)C)c4n3)C[C@@H]2C)n1"
12

Given the entry "CCc1cc(-c2ccc(F)cc2)nn2cc(C(=O)N3CCN(C(=O)[C@H](O)CC4CC4)[C@@H](C)C3)nc12" , report its measured IC50.
14

Field request: IC50 | item: "CC1(c2cc(-c3ccc(F)cc3)nn3cc(C(=O)N4CCN(C(=O)C5(O)CCC5)CC4(C)C)nc23)CC1"
45

----------
# assayed_system: PAR2 (HT-29 cells, SLIGKV activation) (Homo sapiens)
# Construct: host or cells: HT-29 cells
# Sequence (P55085 26-397): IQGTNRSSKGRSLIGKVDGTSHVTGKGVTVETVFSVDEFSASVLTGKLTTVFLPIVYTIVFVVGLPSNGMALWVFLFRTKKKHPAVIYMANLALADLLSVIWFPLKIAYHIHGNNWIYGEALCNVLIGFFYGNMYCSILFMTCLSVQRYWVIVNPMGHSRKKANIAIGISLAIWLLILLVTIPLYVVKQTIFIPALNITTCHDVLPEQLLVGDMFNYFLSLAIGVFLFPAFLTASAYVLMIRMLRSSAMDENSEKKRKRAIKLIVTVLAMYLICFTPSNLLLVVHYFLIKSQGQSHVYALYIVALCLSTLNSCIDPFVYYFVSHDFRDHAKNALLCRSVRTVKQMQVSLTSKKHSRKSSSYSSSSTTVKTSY
# assay_remarks: Ca FLIPR TETRA assay, ANTAGONIST mode, stimulation with 8 μM SLIGKV
# Type: cell-based
# condition_set: HT-29 cells, antagonist mode, stimulation with 8 μM SLIGKV
Assign pIC50 to each entry below.
In plain terms, pIC50 is the concentration in mol/L turned into minus its base-10 logarithm.

For the compound shown here, Cc1cc(C(=O)N2CCN(C(=O)c3cn4nc(-c5ccc(C)c(F)c5)cc(C(C)(C)C)c4n3)C(C)(C)C2)[nH]n1 [Compound I-427] , give the reported pIC50.
9.30

Reported pIC50 for Cc1ccc(-c2cc(C(C)C)c3nc(C(=O)N4CCNC(=O)C4(C)C)cn3n2)cc1Cl [Compound I-508] : what is it?
8.33

For the compound CC(C)(C)c1cc(-c2ccc(F)cc2)nn2cc(C(=O)N3CCN(c4cn[nH]n4)C(=O)C3(C)C)nc12 [Compound I-359] , what pIC50 is on record?
9.00

Which measured pIC50 value corresponds to Cc1cc(-c2cc(C(C)(C)C)c3nc(C(=O)N4CCN(C(=O)c5ccn[nH]5)CC4(C)C)cn3n2)ccc1F [Compound I-381] ?
8.89

----------
# assayed_system: PAR2 (HT-29 cells, trypsin activation) (Homo sapiens, UniProt P55085)
# Construct: host or cells: HT-29 cells
# assay_remarks: Ca FLIPR TETRA assay, ANTAGONIST mode, stimulation with 3.1 U/mL trypsin
# Type: cell-based
# condition_set: HT-29 cells, antagonist mode, stimulation with 3.1 U/mL trypsin
Provide the reported pIC50 of each item.
The quantity pIC50 is defined as the negative base-10 logarithm of the molar concentration.

Reported pIC50, compound "CC(C)c1cc(-c2ccc(F)c(Cl)c2)nn2cc(C(=O)N3CCN(C(=O)[C@H]4C[C@@H](O)C4)CC3(C)C)nc12" : ____
8.13

Please give the measured pIC50 for this compound: "Cc1ccc(-c2cc(C(C)C)c3nc(C(=O)N4CCN(C(=O)c5nc[nH]n5)CC4(C)C)cn3n2)cc1F"
8.55

// returns reported pIC50 for input "CC(C)c1cc(-c2cc(F)cc(F)c2)nn2cc(C(=O)N3CCN(C(=O)C(C)(C)O)CC3(C)C)nc12"
6.79

Using the record for "Cc1nnc(C(=O)N2CCN(C(=O)c3cn4nc(-c5ccc(F)cc5)cc(C(C)C)c4n3)C(C)(C)C2)o1" , report its pIC50.
7.65

Recorded values, source patent US20190119282A1.
